Tgt: ATP-dependent translocase ABCB1 (Homo sapiens, UniProt P08183)
Sequence (P08183 whole entry): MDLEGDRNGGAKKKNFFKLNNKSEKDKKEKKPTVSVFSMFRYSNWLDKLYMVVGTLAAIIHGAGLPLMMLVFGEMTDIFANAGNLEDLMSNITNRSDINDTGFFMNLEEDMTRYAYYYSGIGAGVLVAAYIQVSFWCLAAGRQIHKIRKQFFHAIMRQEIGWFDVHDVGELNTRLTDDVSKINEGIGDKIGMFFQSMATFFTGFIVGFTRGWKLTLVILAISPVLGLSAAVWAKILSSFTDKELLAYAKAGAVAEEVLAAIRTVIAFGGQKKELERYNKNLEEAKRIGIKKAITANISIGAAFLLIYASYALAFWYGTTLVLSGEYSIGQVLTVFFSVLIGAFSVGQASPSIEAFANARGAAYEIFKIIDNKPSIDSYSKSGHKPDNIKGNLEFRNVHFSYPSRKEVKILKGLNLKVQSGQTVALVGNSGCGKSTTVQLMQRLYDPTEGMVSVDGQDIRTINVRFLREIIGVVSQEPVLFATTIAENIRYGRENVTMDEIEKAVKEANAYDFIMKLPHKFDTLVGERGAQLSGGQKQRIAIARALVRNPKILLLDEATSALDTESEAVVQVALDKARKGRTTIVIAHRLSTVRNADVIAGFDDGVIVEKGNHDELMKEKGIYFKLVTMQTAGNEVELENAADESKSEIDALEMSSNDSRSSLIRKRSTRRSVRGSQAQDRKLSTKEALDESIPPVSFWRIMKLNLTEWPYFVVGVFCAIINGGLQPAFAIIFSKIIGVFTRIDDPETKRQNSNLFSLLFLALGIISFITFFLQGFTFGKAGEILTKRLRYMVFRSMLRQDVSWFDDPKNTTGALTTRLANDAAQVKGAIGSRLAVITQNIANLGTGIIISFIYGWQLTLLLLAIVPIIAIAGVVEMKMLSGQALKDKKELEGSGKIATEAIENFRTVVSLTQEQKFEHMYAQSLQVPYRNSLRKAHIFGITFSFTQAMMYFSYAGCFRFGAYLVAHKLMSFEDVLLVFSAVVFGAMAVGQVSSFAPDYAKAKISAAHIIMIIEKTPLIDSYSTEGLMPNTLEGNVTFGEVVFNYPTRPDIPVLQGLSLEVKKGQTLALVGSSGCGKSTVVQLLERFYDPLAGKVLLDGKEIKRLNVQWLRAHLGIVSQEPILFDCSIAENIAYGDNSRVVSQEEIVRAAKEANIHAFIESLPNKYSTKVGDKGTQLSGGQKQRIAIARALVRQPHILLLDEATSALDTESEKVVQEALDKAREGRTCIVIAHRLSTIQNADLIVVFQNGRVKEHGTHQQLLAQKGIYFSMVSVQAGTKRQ
Experiment summary: Inhibition of human MDR1 expressed in mouse L5178Y cells assessed as Rhodamine-123 accumulation measured as fluorescence activity at 20 uM after 20 mins by flow cytometry relative to control
Format: cell-based
Let's look at some molecules and their measured Ratio.
// print number alone

Take a look at these entries with their results.
>>> observed_value("C/C1=C\\[C@@H]2[C@H](CC[C@]3(CO3)[C@H](OC(=O)Cc3ccccc3)[C@H]3[C@@H](OC(=O)Cc4ccccc4)[C@@H](C)C[C@]3(O)C1=O)C2(C)C")
73.4
>>> observed_value("C/C1=C\\[C@@H]2[C@H](CC[C@]3(CO3)[C@H](O)[C@H]3[C@@H](OC(=O)/C=C/c4ccccc4)[C@@H](C)C[C@]3(O)C1=O)C2(C)C")
7.4
>>> observed_value("CCCC(=O)O[C@@H]1[C@@H]2[C@@H](OC(=O)CCC)[C@]3(CC[C@H]4[C@@H](/C=C(\\C)C(=O)[C@@]2(OC(=O)CCC)C[C@@H]1C)C4(C)C)CO3")
83.7

Sample CCCC(=O)O[C@@H]1[C@@H]2[C@@H](OC(C)=O)[C@]3(CC[C@H]4[C@@H](/C=C(\C)C(=O)[C@@]2(OC(C)=O)C[C@@H]1C)C4(C)C)CO3 — what was its Ratio? 74.3

Sample COc1ccc(C(=O)O[C@@H]2[C@@H]3[C@@H](OC(=O)c4ccc(OC)cc4)[C@]4(CC[C@H]5[C@@H](/C=C(\C)C(=O)[C@@]3(O)C[C@@H]2C)C5(C)C)CO4)cc1 — what was its Ratio? 23.3

Sample CCCCC(CC)C(=O)O[C@@H]1[C@@H]2[C@@H](OC(=O)C(CC)CCCC)[C@]3(CC[C@H]4[C@@H](/C=C(\C)C(=O)[C@@]2(O)C[C@@H]1C)C4(C)C)CO3 (stereo partly specified) — what was its Ratio? 33.2
